- target: UniProt:P56450
- Sequence (P56450 whole entry): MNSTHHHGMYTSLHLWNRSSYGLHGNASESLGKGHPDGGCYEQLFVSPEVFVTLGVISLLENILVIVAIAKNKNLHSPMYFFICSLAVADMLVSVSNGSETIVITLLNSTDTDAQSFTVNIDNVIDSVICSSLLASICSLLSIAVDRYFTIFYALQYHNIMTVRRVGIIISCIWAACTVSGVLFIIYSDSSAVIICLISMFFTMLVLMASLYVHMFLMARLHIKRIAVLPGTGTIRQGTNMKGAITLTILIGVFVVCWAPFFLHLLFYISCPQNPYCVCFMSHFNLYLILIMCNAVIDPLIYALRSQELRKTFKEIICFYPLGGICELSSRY
- measurement-notes: Agonist activity at mouse melanocortin-4 receptor expressed in HEK293 cells co-transfected with CRE/beta-galactosidase reporter gene assessed as stimulatory response after 6 hrs
measure-name: EC50 (nM)
// units = nM; emit number, no label

These solved cases illustrate the format of a correct answer.
{"mol": "CC(=O)N[C@@H](CCCNC(=N)N)C(=O)N[C@H](Cc1ccc(Cl)cc1)C(=O)N1Cc2ccccc2C[C@H]1C(=O)N[C@H](Cc1ccc([N+](=O)[O-])cc1)C(N)=O", "unit-info": "nM", "recorded-number": 7.6}
{"mol": "CC(=O)N[C@@H](CCCNC(=N)N)C(=O)N[C@H](Cc1ccc(I)cc1)C(=O)N1Cc2ccccc2C[C@H]1C(=O)N[C@H](Cc1ccc([N+](=O)[O-])cc1)C(N)=O", "unit-info": "nM", "recorded-number": 2.7}
{"mol": "CC(=O)N[C@@H](Cc1c[nH]cn1)C(=O)N[C@H](Cc1ccc(I)cc1)C(=O)N1Cc2ccccc2C[C@H]1C(=O)N[C@H](Cc1ccc([N+](=O)[O-])cc1)C(N)=O", "unit-info": "nM", "recorded-number": 2.4}

Shift focus to the following entry.
Data request: Please look up its EC50: `CC(=O)N[C@@H](Cc1c[nH]cn1)C(=O)N[C@H](Cc1ccc(Cl)cc1)C(=O)N1Cc2ccccc2C[C@H]1C(=O)N[C@H](Cc1ccc([N+](=O)[O-])cc1)C(N)=O`
Data returned: 5.2
